# Assay info: self-splicing fitness, log relative to wild type (ln ratio); higher = more splicing; Tetrahymena group I intron in knt gene, E. coli kanamycin selection, DiMSum; sequences stand for … in CUCUCU…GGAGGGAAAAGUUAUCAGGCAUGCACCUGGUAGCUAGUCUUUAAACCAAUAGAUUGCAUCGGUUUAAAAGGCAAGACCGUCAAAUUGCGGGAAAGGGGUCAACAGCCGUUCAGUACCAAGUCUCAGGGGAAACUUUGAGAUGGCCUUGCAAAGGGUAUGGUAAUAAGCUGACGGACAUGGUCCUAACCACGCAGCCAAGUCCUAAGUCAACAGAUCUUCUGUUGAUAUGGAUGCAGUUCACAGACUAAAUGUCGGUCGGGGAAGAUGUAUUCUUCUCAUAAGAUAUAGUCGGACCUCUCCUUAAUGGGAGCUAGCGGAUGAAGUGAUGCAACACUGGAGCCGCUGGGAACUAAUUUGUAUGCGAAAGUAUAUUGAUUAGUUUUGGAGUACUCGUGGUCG;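 note: selection with 25 µg/mL kanamycin versus none on LB agar overnight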
# Assay conditions: 30 °C
Consider the following sequences and their measured self-splicing fitness (ln) readings.
Metric name: self-splicing fitness (ln)

>  <Sequence content>
AUAAAGCAAUAUUACGUAAA

>  <Metric name>
self-splicing fitness (ln)

>  <Recorded measurement>
-2.39

$$$$
>  <Sequence content>
AAGCAGCAAUAUUACGAUUU

>  <Metric name>
self-splicing fitness (ln)

>  <Recorded measurement>
0.17

$$$$
>  <Sequence content>
AAUUAGCAAUAUUACGAAGA

>  <Metric name>
self-splicing fitness (ln)

>  <Recorded measurement>
-1.25

$$$$
>  <Sequence content>
AUGUAGCAAUAUUACGCAGA

>  <Metric name>
self-splicing fitness (ln)

>  <Recorded measurement>
-2.74

$$$$
>  <Sequence content>
GAAUAGCAAUAUUACGAUUG

>  <Metric name>
self-splicing fitness (ln)

>  <Recorded measurement>
-1.4

$$$$
>  <Sequence content>
GUUGAGCAAUAUUACGAUCA

>  <Metric name>
self-splicing fitness (ln)

>  <Recorded measurement>
-2.74

$$$$
>  <Sequence content>
CAAUAGCAAUAUUACGAAAU

>  <Metric name>
self-splicing fitness (ln)

>  <Recorded measurement>
-3.12

$$$$
>  <Sequence content>
AAAGAGCAAUAUUACGUGGA

>  <Metric name>
self-splicing fitness (ln)

>  <Recorded measurement>
-3.36

$$$$
